Data credit: PubChem BioAssay (NCI)

- Tested on: EKVX NSCLC
- measurementProtocol: NCI tumour cell line growth inhibition, 48 h
Threshold check on TGI: at or above 30 µM gives T, strictly below gives F.

Solved entries (count: 2):
{"columns": ["molecule", "assignedClass"],
 "data": [
  ["COc1ccc(N2NC(c3ccccc3)(c3ccccc3)C(C)C2=O)cc1 (configuration not stated)", "T"],
  ["O=NN(CCCl)C(=O)NC1CCC(CC2CCC(NC(=O)N(CCCl)N=O)CC2)CC1 (configuration not stated)", "T"]
]}

Please check the record `CN(C)CC/C(=N\Nc1ccc(Cl)cc1Cl)c1ccccc1` and state if its TGI is at or above 30 µM. T

Please check the record `O=C(/C=C\c1cccc2ccccc12)c1cccc2ccccc12` and state if its TGI is at or above 30 µM. F

###

- Test system: SF-295 CNS
- measurementProtocol: NCI tumour cell line growth inhibition, 48 h; in the data active = GI50 below about 0.43 µM; inactive = the rest
Valid outcomes are listed here; reply with one: yes (1) for active, no (0) for inactive

{"columns": ["compound", "assignedClass"],
 "data": [
  ["CCCCCn1c(C)cc(/C=C\\c2ccc3cc(C)ccc3[n+]2C)c1C", "yes (1)"]
]}

Could you kindly confirm the outcome this assay logged for `CNCCN=c1ccc2c3c1c(O)c1c(O)ccc(=O)c1c3[nH]n2CCNCCO` ? yes (1)

Could you kindly confirm the outcome this assay logged for `CN(C)CCCn1c(-c2nonc2N)nc2cnccc21` ? no (0)

###

- System: SW-620 colon
- measurementProtocol: NCI tumour cell line growth inhibition, 48 h
assayMetric: GI50

Worked examples, 5 molecules total:
{"columns": ["inputSmiles", "assayMetric", "measured"],
 "data": [
  ["COc1ccc(-c2nn(-c3ccc(NC(=O)Nc4ccc(Cl)c(C(F)(F)F)c4)cc3)cc2-c2ccncc2)cc1Cl", "GI50", "1930 nM"],
  ["Oc1ccc(N=Nc2ccccn2)c(O)c1", "GI50", "757 nM"],
  ["COc1cc(NC(=O)C2=C(N3CCOCC3)/C(=C/c3ccc(Cl)cc3)CC2)cc(OC)c1OC", "GI50", "> 100000 nM"],
  ["NC(=S)NN=C1CSSC1", "GI50", "8060 nM"],
  ["CN(C)CCCn1c(-c2nonc2N)nc2cnccc21", "GI50", "> 25000 nM"]
]}

Look at this molecule and give its reported GI50. `CC1=NN(c2nc(N)nc(/C=C\c3ccc([N+](=O)[O-])s3)n2)C(C)(C)C1` > 100000 nM

Look at this molecule and give its reported GI50. `CC1(C)C(=O)/C(=C\c2cccnc2)C[C@]2(C)[C@H]3CC[C@@H]4[C@@H](C(=O)/C=C/c5ccncc5)CC[C@@]4(C)[C@]3(C)CC[C@@H]12` 1810 nM

Look at this molecule and give its reported GI50. `O=C(CCc1ccc(O)cc1)N/N=C/c1cc(Br)ccc1O` 3830 nM

Look at this molecule and give its reported GI50. `COc1ccc2nc3cc(Cl)ccc3c(NCCNc3c4ccc(Cl)cc4nc4ccc(OC)cc34)c2c1` 1100 nM

###

- Tested on: SK-MEL-28 melanoma
- measurementProtocol: NCI tumour cell line growth inhibition, 48 h
# key: entry, value: TGI
Kindly provide the numeric value in µM only, without the unit symbol.

Worked examples, 3 compounds total:
{"columns": ["inputSmiles", "assayMetric", "measured"],
 "data": [
  ["COc1c(B(O)O)cc(F)cc1-c1nc2ccc3[nH]ncc3c2c2c1CCCC2", "TGI", 8.47],
  ["COc1cc2c3c(n(C)c(=O)c2cc1OC)-c1cc2c(cc1/C3=C\\CCNCCCN)OCO2", "TGI", 91.8],
  ["[N-]=[N+]=Nc1c([N+](=O)[O-])c(=O)n2c3c(cccc13)CCC2", "TGI", 16.3]
]}

Identify the measured TGI of `CN(C)CC/C(=N\Nc1ccc(Cl)cc1Cl)c1ccccc1` for SK-MEL-28 melanoma. 28.5

###

# key: entry, value: TGI
- Tested on: COLO 205 colon
- measurementProtocol: NCI tumour cell line growth inhibition, 48 h
*1 amine or outer side, *2 acyl side, *3 side chain or, on linkers, in order; H or OH if unused. Where a SMILES comes first, the peptide text is derived from it. Bridges are numbered along the chain shown (N, C = ends). Roman numbers before positions name the chains, in order. [ ]: non-standard residue; d: D form. Actinocin(9to1) = Cc1c2oc3c(C)ccc(C(=O)[*:1])c3nc-2c(C(=O)[*:2])c(N)c1=O; NMeF = CN[CH](Cc1ccccc1)C(=O)O; Sar = CNCC(=O)O
Kindly provide the numeric value in µM only, without the unit symbol.

Worked examples, 3 compounds total:
{"columns": ["compound", "unitsText", "TGI"],
 "data": [
  ["COc1ccc(N2NC(c3ccccc3)(c3ccccc3)C(C)C2=O)cc1 (stereo not drawn)", "µM", 34],
  ["CCOC(=O)N1CCC(=C2c3ccc(Cl)cc3CCc3cccnc32)CC1", "µM", 21.6],
  ["Cc1c2oc3c(C)ccc(C(=O)NC4C(=O)NC(C(C)C)C(=O)N5CCCC5C(=O)N(C)CC(=O)N(C)C(Cc5ccccc5)C(=O)OC4C)c3nc-2c(C(=O)NC2C(=O)NC(C(C)C)C(=O)N3CCCC3C(=O)N(C)CC(=O)N(C)C(Cc3ccccc3)C(=O)OC2C)c(N)c1=O (stereo not drawn) (I: TVP[Sar][NMeF] / II: TVP[Sar][NMeF]; ester I:1-I:C, II:1-II:C; linker I:N-II:N via Actinocin(9to1); configuration not given here)", "µM", 0.0266]
]}

Look at this compound and give its reported TGI. `O=C(N/N=C/c1cc(Br)cc(Br)c1[O-])c1ccccc1O.O=C(N/N=C/c1cc(Br)cc(Br)c1[O-])c1ccccc1O.[Ni+2]` 3.22

Look at this compound and give its reported TGI. `COc1ccc(Nc2nc(N)c(C(=O)c3cccs3)s2)cc1` 21.6

Look at this compound and give its reported TGI. C=CC(COC(c1ccccc1)(c1ccccc1)c1ccccc1)N(CC)CC (stereo not drawn) 3.4

###

# key: entry, value: TGI
- System: MDA-MB-435
- measurementProtocol: NCI tumour cell line growth inhibition, 48 h

Worked examples, 5 molecules total:
{"columns": ["molecule", "measured"],
 "data": [
  ["CN(C)CCCNCc1cccc2ccccc12", "> 100 µM"],
  ["CCC[C@@H]1C(=O)N=C(N)N1C(=O)OCc1ccccc1", "> 100 µM"],
  ["Cc1c(Cl)cccc1NC(=O)c1sc2nc3c(cc2c1N)CCCCC3", "0.317 µM"],
  ["Cc1cccc(Cc2cnc(NC(=O)CCc3ccc(C)o3)s2)c1", "0.12 µM"],
  ["Cc1sc2nc3n(c(=O)c2c1C)N=CN(c1ccc(F)cc1)C3", "> 100 µM"]
]}

Look at this molecule and give its reported TGI. `Cc1ccc(-n2cc([Si](C)(C)C)nn2)s1` > 100 µM

Look at this molecule and give its reported TGI. `Cc1ccc(N=C2C(=Nc3ccc(C)cc3)N(c3ccc(C)cc3)C(=S)N2C(=O)c2ccccc2)cc1` > 100 µM

Look at this molecule and give its reported TGI. `O=c1c2ccccc2nc(N/N=C/c2ccccc2O)n1-c1ccccc1` > 100 µM

Look at this molecule and give its reported TGI. `COC(=O)c1c(O)ccc2c1c1c(n2Cc2ccccc2)C(=O)c2ccccc2C1` > 100 µM

###

- Tested on: MALME-3M melanoma
- measurementProtocol: NCI tumour cell line growth inhibition, 48 h
Threshold check on TGI: at or above 30 µM gives y, strictly below gives n.

{"columns": ["compound", "assignedClass"],
 "data": [
  ["C[C@@H]1COCCN1c1cc(C2(O)C[C@H]3CC[C@@H](C2)O3)c2cnn(-c3ccn[nH]3)c2n1 (stereo partly specified)", "n"],
  ["COc1c(B(O)O)cc(F)cc1-c1nc2ccc3[nH]ncc3c2c2c1CCCC2", "n"],
  ["CCSc1ccc(C2C(Br)C(=O)N2c2cc(OC)c(OC)c(OC)c2)cc1 (stereo unspecified)", "y"],
  ["S=c1[nH]c2ccc(I)cc2c(=S)n1Cc1ccccc1", "y"],
  ["Cc1ccc([N+](=O)[O-])c2c(NCC(O)CO)ccnc12 (stereo unspecified)", "y"],
  ["O=C1NCCS(=O)(=O)N2CCC[C@@H]12", "y"]
]}

Please check the record `Brc1ccc2c(-c3csc(-c4c[nH]c5ccccc45)n3)c[nH]c2c1` and state if its TGI is at or above 30 µM. y

Please check the record `CC(C)(C)c1ccc(NS(=O)(=O)c2ccc3nc(NC(=O)c4cnccn4)[nH]c3c2)cc1` and state if its TGI is at or above 30 µM. n

Please check the record `COc1ccc(Sc2ccccc2N)cc1` and state if its TGI is at or above 30 µM. y

Please check the record `Cc1ccc(-c2cc(O)c(-c3ccc(C)cc3C)cc2O)c(C)c1` and state if its TGI is at or above 30 µM. n
